Tested on: Trypanosoma cruzi bloodstream trypomastigotes (BTs)
Assay: Screening against bloodstream trypomastigotes (resazurin)
Type: cell-based
Conditions: Trypanosoma cruzi; Table 1; bloodstream trypomastigotes, 24 h treatment + 4 h resazurin; read-out: Activity IC50 Trypomast.
QUANTITY: IC50 (nM)

COMPOUND | REPORTED VALUE
N#C[Se]Cc1cccc(C#N)c1 | 900
O=C(Cn1ccnc1[N+](=O)[O-])NCc1ccccc1 [BZN, benznidazole, reference compound] | 12400
Cc1ccc(S(=O)(=O)Nc2ccc([Se][Se]c3ccc(NS(=O)(=O)c4ccc(C)cc4)cc3)cc2)cc1 | 3700
FC(F)(F)c1ccc(C[Se][Se]Cc2ccc(C(F)(F)F)cc2)cc1 | 1500
Cc1ccc(C[Se]C#N)cc1 | 4500
CSc1ccc(C[Se][Se]Cc2ccc(SC)cc2)cc1 | 1700
N#C[Se]Cc1ccccc1[N+](=O)[O-] | 1300

----------
Reported pIC50 is given for each of the following molecules.
System: Mammalian Vero cells
Test: Cytotoxicity test on Vero cells (resazurin)
Type: cell-based
Conditions: Chlorocebus sabaeus; Table S1; cultured Vero cells; read-out: Toxicity IC50 Vero cell
pIC50: −log10 of the molar value.
QUANTITY: pIC50

SMILES | TARGET SYSTEM | QUANTITY | REPORTED VALUE
O=S(=O)(Nc1ccc([Se][Se]c2ccc(NS(=O)(=O)c3ccc(Br)cc3)cc2)cc1)c1ccc(Br)cc1 | Mammalian Vero cells | pIC50 | 4.30
N#Cc1cccc(C[Se][Se]Cc2cccc(C#N)c2)c1 | Mammalian Vero cells | pIC50 | 4.53
O=[N+]([O-])c1ccc(S(=O)(=O)Nc2ccc([Se][Se]c3ccc(NS(=O)(=O)c4ccc([N+](=O)[O-])cc4)cc3)cc2)cc1 | Mammalian Vero cells | pIC50 | 4.93
O=S(=O)(Nc1ccc([Se][Se]c2ccc(NS(=O)(=O)c3ccccc3F)cc2)cc1)c1ccccc1F | Mammalian Vero cells | pIC50 | 4.40
N#C[Se]Cc1ccc(Br)cc1 | Mammalian Vero cells | pIC50 | 4.16
N#C[Se]Cc1cc2c(cc1Br)OCO2 | Mammalian Vero cells | pIC50 | 4.41
N#C[Se]Cc1ccccc1C#N | Mammalian Vero cells | pIC50 | 4.73
N#C[Se]CC(=O)C12CC3CC(CC(C3)C1)C2 | Mammalian Vero cells | pIC50 | 4.07
O=S(=O)(Nc1ccc([Se][Se]c2ccc(NS(=O)(=O)c3ccc(Cl)cc3)cc2)cc1)c1ccc(Cl)cc1 | Mammalian Vero cells | pIC50 | 4.53
Cc1ccc(C[Se][Se]Cc2ccc(C)cc2)cc1 | Mammalian Vero cells | pIC50 | 5.31
Brc1cc2c(cc1C[Se][Se]Cc1cc3c(cc1Br)OCO3)OCO2 | Mammalian Vero cells | pIC50 | 4.21
COc1ccc(S(=O)(=O)Nc2ccc([Se][Se]c3ccc(NS(=O)(=O)c4ccc(OC)cc4)cc3)cc2)cc1 | Mammalian Vero cells | pIC50 | 4.39
COc1cc2oc(=O)cc(C[Se]C#N)c2cc1OC | Mammalian Vero cells | pIC50 | 3.96
N#C[Se]Cc1ccc(C#N)cc1 | Mammalian Vero cells | pIC50 | 4.89
O=S(=O)(Nc1ccc([Se][Se]c2ccc(NS(=O)(=O)c3ccc(C(F)(F)F)cc3)cc2)cc1)c1ccc(C(F)(F)F)cc1 | Mammalian Vero cells | pIC50 | 4.44
N#C[Se]Cc1ccccc1 | Mammalian Vero cells | pIC50 | 4.27
N#Cc1ccc(S(=O)(=O)Nc2ccc([Se][Se]c3ccc(NS(=O)(=O)c4ccc(C#N)cc4)cc3)cc2)cc1 | Mammalian Vero cells | pIC50 | 4.80
O=S(=O)(Nc1ccc([Se][Se]c2ccc(NS(=O)(=O)c3ccc(F)cc3)cc2)cc1)c1ccc(F)cc1 | Mammalian Vero cells | pIC50 | 4.15

----------
Reported Selectivity Index Amast. is given for each of the following compounds.
Tested on: Trypanosoma cruzi intracellular amastigotes
Assay: Screening against intracellular amastigotes in Vero cells (Giemsa counting)
Format: cell-based
Conditions: IC50 Vero cells/IC50 amastigotes
QUANTITY: Selectivity Index Amast.

SMILES | QUANTITY | REPORTED VALUE
Cn1ccnc1S(=O)(=O)Nc1ccc([Se][Se]c2ccc(NS(=O)(=O)c3nccn3C)cc2)cc1 | Selectivity Index Amast. | 15
FC(F)(F)c1ccc(C[Se][Se]Cc2ccc(C(F)(F)F)cc2)cc1 | Selectivity Index Amast. | 55
O=S(=O)(Nc1ccc([Se][Se]c2ccc(NS(=O)(=O)c3ccc(-c4ccccc4)cc3)cc2)cc1)c1ccc(-c2ccccc2)cc1 | Selectivity Index Amast. | 21
Cc1ccc(C[Se]C#N)cc1 | Selectivity Index Amast. | 20

----------
Test system: Mammalian Vero cells
Assay: Cytotoxicity test on Vero cells (resazurin)
Assay type: cell-based
Conditions: Chlorocebus sabaeus; Table S1; cultured Vero cells; read-out: Toxicity IC50 Vero cell
QUANTITY: IC50 (µM)

MOLECULE | TARGET SYSTEM | REPORTED VALUE
N#C[Se]Cc1ccc2ccccc2n1 [compound 27] | Mammalian Vero cells | 68.3
O=[N+]([O-])c1ccccc1C[Se][Se]Cc1ccccc1[N+](=O)[O-] [compound 16] | Mammalian Vero cells | 18.9
O=[N+]([O-])c1cccc(C[Se][Se]Cc2cccc([N+](=O)[O-])c2)c1 [compound 18] | Mammalian Vero cells | 7.3
N#Cc1ccc(C[Se][Se]Cc2ccc(C#N)cc2)cc1 [compound 14] | Mammalian Vero cells | 8.9
N#C[Se]Cc1ccc([N+](=O)[O-])cc1 [compound 5] | Mammalian Vero cells | 28.6
O=S(=O)(Nc1ccc([Se][Se]c2ccc(NS(=O)(=O)c3cccs3)cc2)cc1)c1cccs1 [compound 48] | Mammalian Vero cells | 15.7
O=S(=O)(Nc1ccc([Se][Se]c2ccc(NS(=O)(=O)c3ccccc3)cc2)cc1)c1ccccc1 [compound 41] | Mammalian Vero cells | 26.5
N#C[Se]Cc1ccc(C(F)(F)F)cc1 [compound 7] | Mammalian Vero cells | 50.5
O=[N+]([O-])c1ccc(C[Se][Se]Cc2ccc([N+](=O)[O-])cc2)cc1 [compound 6] | Mammalian Vero cells | 28.2
